biological target: recombinant full-length TDP1 (Homo sapiens); experiment: gel-based TDP1 fluorescence assay in vitro (wild-type TDP1); conditions: TDP1 IC50, pre-incubation time 3 h with WT TDP1
Sequence (Q9NUW8 whole entry): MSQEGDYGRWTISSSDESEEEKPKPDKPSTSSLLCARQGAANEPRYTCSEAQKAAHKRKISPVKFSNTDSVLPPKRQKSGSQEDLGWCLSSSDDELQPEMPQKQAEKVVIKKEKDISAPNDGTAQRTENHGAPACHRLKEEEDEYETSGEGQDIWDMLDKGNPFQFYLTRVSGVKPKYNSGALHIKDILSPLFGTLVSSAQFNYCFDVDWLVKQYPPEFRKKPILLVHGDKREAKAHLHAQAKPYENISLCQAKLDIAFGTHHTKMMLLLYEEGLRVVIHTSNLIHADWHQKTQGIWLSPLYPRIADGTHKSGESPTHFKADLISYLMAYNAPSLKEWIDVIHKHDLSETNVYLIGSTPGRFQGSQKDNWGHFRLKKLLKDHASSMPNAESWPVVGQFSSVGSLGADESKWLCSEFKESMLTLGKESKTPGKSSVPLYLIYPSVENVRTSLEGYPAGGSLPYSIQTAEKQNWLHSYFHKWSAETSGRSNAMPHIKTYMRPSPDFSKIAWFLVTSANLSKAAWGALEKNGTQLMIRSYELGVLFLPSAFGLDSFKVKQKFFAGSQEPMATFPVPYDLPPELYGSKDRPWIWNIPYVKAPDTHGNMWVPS
pIC50: −log10 of the molar value.
Recorded endpoint: pIC50

>>> reported_value("O=C(NCCc1ccccc1)c1ccc(-c2cccc3c(=O)c(C(=O)O)c[nH]c23)c(OS(=O)(=O)F)c1")
3.57

----------
A collection of molecules and their measured IC50
biological target: recombinant full-length TDP1 (Homo sapiens); experiment: gel-based TDP1 fluorescence assay in vitro (wild-type TDP1); conditions: TDP1 IC50, pre-incubation time 5 min with wild-type (WT) TDP1
Recorded endpoint: IC50 (µM)

>>> reported_value("O=C(O)c1c[nH]c2c(-c3cccc(OS(=O)(=O)F)c3)cccc2c1=O")
690
>>> reported_value("O=C(NCCc1ccccc1)c1ccc(-c2cccc3c(=O)c(C(=O)O)c[nH]c23)c(OS(=O)(=O)F)c1")
410
